Test system: COLO 205 colon
Assay: NCI-60 one-dose screen, 48 h (100 = growth as untreated, 0 = no growth, -100 = all killed)
Details: 10 µM
Compounds without any hit were thinned out: in the full panel of roughly 83,000, 20% have a hit.
propertyMeasured: growth (%)
Numbers only; they are read as %.

Consider the following illustrative entries.
# compound, targetOrTestSystem, propertyMeasured, unitsSymbol, observed
data = [
    ("CN(C)CCC1(c2ccccc2)CCN(C)C1=O (centres undefined)", "COLO 205 colon", "growth", "%", 105),
    ("Cc1c2c(nn1C(=O)c1nn(-c3ccc(Cl)cc3)cc1O)-c1ccccc1CC2", "COLO 205 colon", "growth", "%", -4.51),
    ("O=S(=O)(O)c1ccc(Cl)cc1", "COLO 205 colon", "growth", "%", 109),
]

Form: compound = COc1ccc(-c2nn(-c3cccc(Cl)c3)cc2/C=C2\NC(=S)N(c3ccc(Cl)cc3)C2=O)cc1 ; growth = 36.9

Form: compound = C=C/C(C)=C/C[C@]1(C)[C@H](C)[C@@H](OC(=O)CCC)[C@H](O)[C@@]23C(=C[C@H](OC)C[C@@H]12)[C@@H](OC(=O)CCC)O[C@H]3OC(C)=O ; growth = -53.3

Form: compound = Cc1n[nH]c(C)c1N=Nc1cccc2c1C(=O)c1ccccc1C2=O ; growth = 104
